- System: A549-ACTB-RAB5A
- PROCEDURE_SUMMARY: phenotypically active (imaging signature differs from DMSO and reproducible) at any of 0.3-9 uM (binary (1 = active, 0 = inactive)); higher = active
- COND: treatment time: 24 h
Where a name gives a salt, the structure may show the parent alone.
Outcome codes: active, inactive

compound=C[C@@H](CN1CCC(n2c(=O)[nH]c3cc(Cl)ccc32)CC1)NC(=O)c1ccc2ccccc2c1 assigned_label=active
compound="CCN[C@H]1C[C@H](C)S(=O)(=O)c2sc(S(N)(=O)=O)cc21 [dorzolamide]" assigned_label=inactive
compound="CC(C)(C)c1nc(-c2cccc(NS(=O)(=O)c3c(F)cccc3F)c2F)c(-c2ccnc(N)n2)s1 [dabrafenib]" assigned_label=active
compound=C[C@H](NC(=O)[C@@H](O)c1cc(F)cc(F)c1)C(=O)N[C@@H]1C(=O)N(C)c2ccccc2-c2ccccc21 assigned_label=inactive
compound="CCCC(=O)O [Sodium butyrate]" assigned_label=inactive
compound=Cc1cc(C)nc(SCC(=O)Nc2ncc(Cc3cccc4ccccc34)s2)n1 assigned_label=inactive
compound="CC(C)[C@H](N)C(=O)OCC(CO)OCn1cnc2c(=O)[nH]c(N)nc21 (stereo partly drawn) [valganciclovir]" assigned_label=inactive
compound="CN1CCN2c3ncccc3Cc3ccccc3C2C1 (stereo not drawn) [Mirtazapine]" assigned_label=inactive
compound="C#C[C@]1(O)CC[C@H]2[C@@H]3CCC4=Cc5oncc5C[C@]4(C)[C@H]3CC[C@@]21C [danazol]" assigned_label=inactive
compound=Cn1cc(CCn2cnc(-c3cnn(C)c3)c2-c2ccc(C#N)cc2)cn1 assigned_label=active
compound="COc1c(Nc2cc(C)[nH]n2)nc(Sc2ccc(S(=O)(=O)Cc3cccc([N+](=O)[O-])c3F)cc2F)nc1N1CCOCC1 [Centrinone]" assigned_label=active
compound="O=c1oc2c(O)c(O)cc3c(=O)oc4c(O)c(O)cc1c4c23 [Ellagic acid]" assigned_label=inactive
compound="Cn1cnc2c(F)c(Nc3ccc(Br)cc3Cl)c(C(=O)NOCCO)cc21 [selumetinib]" assigned_label=active
compound="COc1cc(C(=O)NC2CCN(C)CC2)c(F)cc1Nc1ncc2c(n1)N(C1CCCC1)CC(F)(F)C(=O)N2C [TAK 960 hydrochloride]" assigned_label=active
compound=CCC(=O)N1CCOc2c(cc(-c3ccc(OC)c(OC)c3)cc2OC[C@H]2CCCN(C)C2)C1 assigned_label=active
compound=CCCCCCCCCCCCCCCC[n+]1ccn(Cc2ccccc2)c1C assigned_label=active
compound="CC(=O)CCCCn1c(=O)c2c(ncn2C)n(C)c1=O [Pentoxifylline]" assigned_label=inactive
compound="NS(=O)(=O)c1cc(C2(O)NC(=O)c3ccccc32)ccc1Cl (stereo not drawn) [chlorthalidone]" assigned_label=inactive
